# measurement.target: T1, HLA-A*02:01 (peptide-receptive MHC class I monomer after UV-ligand exchange) (human)
# T1 construct: Monomers made with a UV-sensitive peptide that is cleaved by UV and exchanged for the test peptide; captured on streptavidin plates; also called MHC molecules
# assay.overview: UV-ligand exchange + anti-b2m ELISA; exchange yield grade: + >=10%, ++ >=20%, +++ >=50, ++++ >=75%
Overview of recorded peptide exchange yield for various binders

>>> observed("SLFSQMGSQYEL [peptide SLFSQMGSQYEL (SEQ ID NO: 56)]")
"50 to 75%"

Now take the following binder into account.
Exercise: Returns the measured peptide exchange yield for the input binder. Input: VILDLPLVI [peptide VILDLPLVI (SEQ ID NO: 16)]
Solution: 50 to 75%
